Target: hGPR119 (Homo sapiens)
Construct: expressed in transfected cells; host or cells: CHO
Sequence (Q8TDV5 whole entry): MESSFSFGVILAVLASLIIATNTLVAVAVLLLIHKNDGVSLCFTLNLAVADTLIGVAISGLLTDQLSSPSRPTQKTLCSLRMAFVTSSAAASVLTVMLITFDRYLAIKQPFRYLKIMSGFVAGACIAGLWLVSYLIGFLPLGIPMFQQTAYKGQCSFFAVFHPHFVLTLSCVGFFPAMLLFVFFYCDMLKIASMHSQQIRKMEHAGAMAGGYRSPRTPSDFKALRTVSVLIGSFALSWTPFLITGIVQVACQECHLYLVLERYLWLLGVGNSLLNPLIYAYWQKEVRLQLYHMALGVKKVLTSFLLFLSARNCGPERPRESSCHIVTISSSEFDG
Test: In vitro cyclic AMP assay (Cisbio dynamic 2 HTRF kit) in CHO-hGPR119 cells
Format: cell-based
Conditions: 1 h, cAMP, compound at 1 μM, 60 min, read-out: Induction (% induction at 1 μM)
assay.metric: activation at 1 µM
Answer format: number, then unit.

Lab note: need activation at 1 µM for CC(C)c1noc(N2CCC(C(Oc3nc4ccc(-c5ccc(S(C)(=O)=O)nc5)nc4s3)C(F)(F)F)CC2)n1 (stereo not shown) on hGPR119 (Homo sapiens), anyone have it?
72%

Repeat for the following compound: CC(C)c1noc(N2CCC([C@H](C)Oc3nc4ccc(-c5ccc(C(=O)N(C)C)cc5)nc4s3)CC2)n1
31%

Repeat for the following compound: COCCNS(=O)(=O)c1ccc(-c2ccc3nc(N4CCC(c5nc(C(C)C)no5)CC4)sc3n2)cc1
29%

Repeat for the following compound: CC(C)c1noc(N2CCC(C(C)Oc3nc4ccc(-c5ccc(C(=O)NC6CC6)cc5)nc4s3)CC2)n1 (stereo not shown)
14%

Repeat for the following compound: COCCS(=O)(=O)c1ccc(-c2ccc3nc(N4CCC(c5nc(C(C)C)no5)CC4)sc3n2)cc1
24%

Repeat for the following compound: CNS(=O)(=O)c1ccc(-c2ccc3nc(N4CCC(c5nc(C(C)C)no5)CC4)sc3n2)cc1
17%

Repeat for the following compound: CC(C)c1noc(N2CCC(C(C)Oc3nc4ccc(-c5cc[nH]c(=O)c5)nc4s3)CC2)n1 (stereo not shown)
42%

---

Molecular target: hGPR119 (Homo sapiens)
Construct: expressed in transfected cells; host or cells: CHO
Test: In vitro cyclic AMP assay (Cisbio dynamic 2 HTRF kit) in CHO-hGPR119 cells
Assay type: cell-based
Settings: 1 h, cAMP, compound at 1 μM, 60 min, read-out: Induction (% induction at 1 μM)
Output schema: class label derived from activation at 1 µM. Mapping: class 0 = under 40%, class 1 = from 40% up to 60%, class 2 = 60% and over

Band for CC(C)c1noc(N2CCC(C(C)Oc3nc4ccc(-c5ccc(-n6cnnn6)cc5)nc4s3)CC2)n1 (stereo not drawn) ?
class 1

Repeat for the following compound: CC(C)c1nnc(N2CCC(C(C)Oc3nc4ccc(-c5ccc(S(C)(=O)=O)cc5)nc4s3)CC2)o1 (stereo not drawn)
class 0

Repeat for the following compound: CC(C)c1noc(C2CCN(c3nc4ccc(-c5ccc(C(=O)N6CCOCC6)cc5)nc4s3)CC2)n1
class 1

Repeat for the following compound: CC(C)c1noc(C2CCN(c3nc4ccc(-c5ccc(S(C)(=O)=O)cc5)nc4s3)CC2)n1
class 1

Repeat for the following compound: CC(C)c1noc(N2CCC(C(C)Oc3nc4ccc(-c5ccc(Cl)nc5)nc4s3)CC2)n1 (stereo not drawn)
class 2

Repeat for the following compound: COCc1cnc(N2CCC(C(C)Oc3nc4ccc(-c5ccc(S(C)(=O)=O)nc5)nc4s3)CC2)nc1 (stereo not drawn)
class 2

Repeat for the following compound: CC(C)c1noc(N2CCC([C@H](C)Oc3nc4ccc(-c5ccc(S(C)(=O)=O)nc5)nc4s3)CC2)n1
class 2

Repeat for the following compound: CC(C)c1noc(N2CCC(C(C)Oc3nc4ccc(-c5ccc(C(=O)N(C)C6CC6)cc5)nc4s3)CC2)n1 (stereo not drawn)
class 0

Repeat for the following compound: CCCc1cnc(N2CCC(C(C)Oc3nc4ccc(-c5ccc(S(C)(=O)=O)cc5)nc4s3)CC2)nc1 (stereo not drawn)
class 2

Repeat for the following compound: CC(C)c1noc(N2CCC(C(C)Oc3nc4ccc(-c5ccn(C)c(=O)c5)nc4s3)CC2)n1 (stereo not drawn)
class 1

Repeat for the following compound: CCc1cnc(N2CCN(c3nc4ccc(-c5ccc(S(C)(=O)=O)cc5)nc4s3)CC2)nc1
class 0

Repeat for the following compound: CCc1cnc(N2CCC([C@H](C)Oc3nc4ccc(-c5ccc(C(F)(F)F)nc5)nc4s3)CC2)nc1
class 2

Repeat for the following compound: CC(C)c1noc(N2CCC(C(C)Oc3nc4ccc(-c5ccnc(F)c5)nc4s3)CC2)n1 (stereo not drawn)
class 2
